Target: IRAK4 (Homo sapiens (Human), UniProt Q9NWZ3)
Sequence (Q9NWZ3 whole entry): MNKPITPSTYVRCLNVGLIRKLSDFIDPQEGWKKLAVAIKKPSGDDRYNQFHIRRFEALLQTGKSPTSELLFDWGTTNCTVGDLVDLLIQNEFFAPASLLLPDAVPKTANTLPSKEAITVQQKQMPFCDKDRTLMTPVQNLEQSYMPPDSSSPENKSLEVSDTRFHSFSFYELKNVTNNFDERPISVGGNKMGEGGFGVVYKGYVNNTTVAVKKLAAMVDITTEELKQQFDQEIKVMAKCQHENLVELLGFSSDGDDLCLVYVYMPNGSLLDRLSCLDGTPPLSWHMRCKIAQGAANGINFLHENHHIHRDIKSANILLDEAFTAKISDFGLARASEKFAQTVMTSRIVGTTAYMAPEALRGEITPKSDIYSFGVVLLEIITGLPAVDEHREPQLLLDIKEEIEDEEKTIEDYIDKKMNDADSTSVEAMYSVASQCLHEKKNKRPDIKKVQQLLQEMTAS
Test: IRAK4 Kinase Assay
Format: biochemical
Conditions: IMAP fluorescence polarization, 0.5 nM GST tagged IRAK4, 100 μM ATP, 30 minutes at 25° C.; read-out: IRAK4 IC50
pIC50: −log10 of the molar value. Counter-ions that a name gives are not always drawn.
measure_name: pIC50

>>> df
                                   compound  measure_name  numeric_result
0  Cn1cc(NC(=O)c2cnn3ccc(N[C@H]4C(O)CCC[C@H]4N)nc23)c(C(F)(F)F)n1 (single isomer, unassigned)         pIC50            8.40
1  Cn1cc(NC(=O)c2cnn3ccc(N[C@@H]4CCCCC[C@@H]4N)nc23)c(C(F)(F)F)n1 (single isomer, unassigned)         pIC50            7.20
2  N#Cc1cscc1NC(=O)c1cnn2ccc(N[C@@H]3CCCC[C@@H]3N)nc12 [Example 39, trifluoroacetate]         pIC50            8.70
3  O=C(Nc1cscc1C(F)F)c1cnn2ccc(N3C[C@H]4CC[C@@H]3CN4)nc12 (single isomer, unassigned) [Example 155, trifluoroacetate]         pIC50            7.49
4  CC(C)(C)n1cc(NC(=O)c2cnn3ccc(N4CC5CCC4CN5)nc23)c(C(F)(F)F)n1 (stereo not drawn) [Example 50, trifluoroacetate]         pIC50            7.05
5  N[C@@H]1[C@H](Nc2ccn3ncc(C(=O)Nc4ccsc4Cl)c3n2)CCCC1(F)F [Example 190]         pIC50            6.05

----------
Molecular target: IRAK4 (Homo sapiens (Human))
Experiment: IRAK4 Kinase Assay
Assay type: biochemical
Conditions: IMAP fluorescence polarization, 0.5 nM GST tagged IRAK4, 100 μM ATP, 30 minutes at 25° C.; read-out: IRAK4 IC50
Counter-ions that a name gives are not always drawn.
Grouping rule (IC50): bucket 1 (below 6 nM), bucket 2 (6 nM to below 40 nM), bucket 3 (40 nM or more)

compound	assigned_class
Cn1cc(NC(=O)c2cnn3ccc(NC4CNCCC4F)nc23)c(C(F)F)n1 (single isomer, unassigned) [Example 241]	bucket 1
CC(C)n1cc(NC(=O)c2cnn3ccc(N[C@@H]4CCCC[C@@H]4O)nc23)c(C(F)F)n1	bucket 2
Cn1cc(NC(=O)c2cnn3ccc(N4CC[C@H]5CC[C@@H](C4)N5)nc23)c(C(F)(F)F)n1 (single isomer, unassigned) [Example 89, trifluoroacetate]	bucket 3
Cn1cc(NC(=O)c2cnn3ccc(N4C5CNCC4C5)nc23)c(C(F)(F)F)n1	bucket 2
O=C(Nc1cn(CC(F)F)nc1C(F)(F)F)c1cnn2ccc(N3CCNCC4(CC4)C3)nc12 [Example 64, trifluoroacetate]	bucket 2
N#Cc1sccc1NC(=O)c1cnn2ccc(N[C@@H]3CCCC(F)(F)[C@@H]3N)nc12 [Example 133, trifluoroacetate]	bucket 3
Cn1cc(NC(=O)c2cnn3ccc(N4C[C@@H]5CNC[C@H]4C5)nc23)c(C(F)(F)F)n1 (single isomer, unassigned)	bucket 2
Cn1cc(NC(=O)c2cnn3ccc(N4CCC[C@H](N)C4)nc23)c(C(F)(F)F)n1	bucket 1
Cn1cc(NC(=O)c2cnn3ccc(N4CC5CCC4CN5)nc23)c(Br)n1 (stereo not shown) [Example 140, trifluoroacetate]	bucket 3
N[C@H]1CCCC[C@H]1Nc1ccn2ncc(C(=O)Nc3cscc3Br)c2n1 [Example 76, trifluoroacetate]	bucket 1
Cn1cc(NC(=O)c2cnn3ccc(N[C@@H]4CCCC[C@@H]4N)nc23)c(-c2nncn2C)n1 [Example 286, trifluoroacetate]	bucket 2
N#Cc1sccc1NC(=O)c1cnn2ccc(N3CCCNCC3)nc12 [Example 111, trifluoroacetate]	bucket 3
Cc1nc(-c2nn(C)cc2NC(=O)c2cnn3ccc(N[C@@H]4CCCC[C@@H]4N)nc23)no1	bucket 2
Cn1cc(NC(=O)c2cnn3ccc(N[C@H]4CNC[C@H](F)C4)nc23)c(C(F)(F)F)n1	bucket 1
Cn1ncc(NC(=O)c2cnn3ccc(N[C@@H]4CCCC[C@@H]4N)nc23)c1C(F)(F)F [Example 166, trifluoroacetate]	bucket 2
O=C(Nc1ccccc1I)c1cnn2ccc(N[C@@H]3CCCC[C@@H]3O)nc12	bucket 3
Cn1cc(NC(=O)c2cnn3ccc(N4CCNCC(F)(F)C4)nc23)c(C(F)(F)F)n1 [Example 36, trifluoroacetate]	bucket 3
Cn1cc(NC(=O)c2cnn3ccc(N4CC5CCC(C4)N5)nc23)c(C(F)F)n1 [Example 172, trifluoroacetate]	bucket 1
N[C@H]1CCCC[C@H]1Nc1ccn2ncc(C(=O)Nc3ccccc3Br)c2n1 [Example 113, trifluoroacetate]	bucket 1
Cn1cc(NC(=O)c2cnn3ccc(NC4CNCCC4F)nc23)c(C(F)F)n1 (single isomer, unassigned) [Example 234]	bucket 1
Cn1cc(NC(=O)c2cnn3ccc(N4C[C@H]5CC[C@@H]4CN5)nc23)c(C(F)F)n1 (single isomer, unassigned) [Example 161, trifluoroacetate]	bucket 1
Cn1cc(NC(=O)c2cnn3ccc(N[C@@H]4CNC[C@H](F)C4)nc23)c(C(F)F)n1	bucket 3
CC(C)(C)n1cc(NC(=O)c2cnn3ccc(N[C@@H]4CCCC(F)(F)[C@@H]4N)nc23)c(C(F)(F)F)n1 [Example 49, trifluoroacetate]	bucket 3
Cn1cc(NC(=O)c2cnn3ccc(N4CCNC(C)(C)C4)nc23)c(C(F)(F)F)n1 [Example 30, trifluoroacetate]	bucket 3
Cn1cc(NC(=O)c2cnn3ccc(N[C@@H]4CCCC[C@@H]4O)nc23)c(Cl)n1	bucket 2
Cn1cc(NC(=O)c2cnn3ccc(N4CC5CCC4CN5)nc23)c(C#N)n1 (stereo not shown) [Example 136, trifluoroacetate]	bucket 3
Cn1cc(NC(=O)c2cnn3ccc(N[C@H]4CCCCC[C@H]4N)nc23)c(C(F)(F)F)n1 (relative stereo) [Example 33]	bucket 1
